- ASSAY INFO: Release test (measurement of leakage; membrane-disruption function)
- REPORTED CONDITIONS: pH 7.4; labelled amphipathic substance alone
The threshold is inclusive: pH 7.4 Leakage (%) Lb7.4 Amphipathic substance alone of exactly 2% counts as Yes; values below receive No.

INPUT: Evaluate CC1(C)[C@@H](O[C@H]2O[C@H](C(=O)O)[C@@H](O)[C@H](O)[C@H]2O[C@@H]2O[C@H](C(=O)O)[C@@H](O)[C@H](O)[C@H]2O)CC[C@]2(C)[C@H]3C(=O)C=C4[C@@H]5C[C@@](C)(C(=O)O)CC[C@]5(C)CC[C@@]4(C)[C@]3(C)CC[C@@H]12 : pH 7.4 Leakage (%) Lb7.4 Amphipathic substance alone at minimum 2%?
OUTPUT: No

INPUT: Evaluate CCCCCCCCCCCCCCCCCC(=O)OCC(CO)OC(=O)CCCCCCCCCCCCCCCCC (stereo not drawn) [Glycerol distearate, glycerol distearate] : pH 7.4 Leakage (%) Lb7.4 Amphipathic substance alone at minimum 2%?
OUTPUT: No

INPUT: Evaluate CCCCCCCCCC(=O)OC[C@H](COP(=O)([O-])OCC[N+](C)(C)C)OC(=O)CCCCCCCCC : pH 7.4 Leakage (%) Lb7.4 Amphipathic substance alone at minimum 2%?
OUTPUT: Yes

INPUT: Evaluate CCCCCCCC/C=C\CCCCCCCC(=O)OCC(O)CO (stereo not drawn) [Glycerol monooleate, glycerol monooleate] : pH 7.4 Leakage (%) Lb7.4 Amphipathic substance alone at minimum 2%?
OUTPUT: Yes

INPUT: Evaluate CCCCCCCCCCCC(=O)OCC(O)COC(=O)CCCCCCCCCCC : pH 7.4 Leakage (%) Lb7.4 Amphipathic substance alone at minimum 2%?
OUTPUT: No

INPUT: Evaluate Cc1c(C)c2c(c(C)c1O)CCC(C)(CCCC(C)CCCC(C)CCCC(C)C)O2 (racemic) : pH 7.4 Leakage (%) Lb7.4 Amphipathic substance alone at minimum 2%?
OUTPUT: No

###

- ASSAY INFO: Release test (measurement of leakage; membrane-disruption function)
- REPORTED CONDITIONS: pH 7.4; labelled pH-sensitive compound alone
Consider the following compounds; for each one, report its pH 7.4 Leakage (%) La7.4 pH-sensitive compound alone.
Record the value in %, omitting the unit from your answer.

INPUT: Any idea what pH 7.4 Leakage (%) La7.4 pH-sensitive compound alone was measured for CC(CCC(=O)NCC(=O)O)C1CCC2C3CCC4CC(O)CCC4(C)C3CC(O)C12C (stereo not shown) [Glycodeoxycholic acid] ?
OUTPUT: 1.6

INPUT: Any idea what pH 7.4 Leakage (%) La7.4 pH-sensitive compound alone was measured for CC1(C)[C@@H](O[C@H]2O[C@H](C(=O)O)[C@@H](O)[C@H](O)[C@H]2O[C@@H]2O[C@H](C(=O)O)[C@@H](O)[C@H](O)[C@H]2O)CC[C@]2(C)[C@H]3C(=O)C=C4[C@@H]5C[C@@](C)(C(=O)O)CC[C@]5(C)CC[C@@]4(C)[C@]3(C)CC[C@@H]12 [Glycyrrhizinic acid] ?
OUTPUT: 0.8

INPUT: Any idea what pH 7.4 Leakage (%) La7.4 pH-sensitive compound alone was measured for C[C@H](CCC(=O)O)[C@H]1CC[C@H]2[C@@H]3[C@H](O)C[C@@H]4C[C@H](O)CC[C@]4(C)[C@H]3CC[C@]12C [Chenodeoxycholic acid] ?
OUTPUT: 1.1

INPUT: Any idea what pH 7.4 Leakage (%) La7.4 pH-sensitive compound alone was measured for C[C@H](CCC(=O)O)[C@H]1CC[C@H]2[C@@H]3C[C@H](O)[C@@H]4C[C@H](O)CC[C@]4(C)[C@H]3CC[C@]12C [Hyodeoxycholic acid] ?
OUTPUT: 0.6
